Molecular target: HDAC-6 (Homo sapiens)
Sequence (Q9UBN7 1-1215): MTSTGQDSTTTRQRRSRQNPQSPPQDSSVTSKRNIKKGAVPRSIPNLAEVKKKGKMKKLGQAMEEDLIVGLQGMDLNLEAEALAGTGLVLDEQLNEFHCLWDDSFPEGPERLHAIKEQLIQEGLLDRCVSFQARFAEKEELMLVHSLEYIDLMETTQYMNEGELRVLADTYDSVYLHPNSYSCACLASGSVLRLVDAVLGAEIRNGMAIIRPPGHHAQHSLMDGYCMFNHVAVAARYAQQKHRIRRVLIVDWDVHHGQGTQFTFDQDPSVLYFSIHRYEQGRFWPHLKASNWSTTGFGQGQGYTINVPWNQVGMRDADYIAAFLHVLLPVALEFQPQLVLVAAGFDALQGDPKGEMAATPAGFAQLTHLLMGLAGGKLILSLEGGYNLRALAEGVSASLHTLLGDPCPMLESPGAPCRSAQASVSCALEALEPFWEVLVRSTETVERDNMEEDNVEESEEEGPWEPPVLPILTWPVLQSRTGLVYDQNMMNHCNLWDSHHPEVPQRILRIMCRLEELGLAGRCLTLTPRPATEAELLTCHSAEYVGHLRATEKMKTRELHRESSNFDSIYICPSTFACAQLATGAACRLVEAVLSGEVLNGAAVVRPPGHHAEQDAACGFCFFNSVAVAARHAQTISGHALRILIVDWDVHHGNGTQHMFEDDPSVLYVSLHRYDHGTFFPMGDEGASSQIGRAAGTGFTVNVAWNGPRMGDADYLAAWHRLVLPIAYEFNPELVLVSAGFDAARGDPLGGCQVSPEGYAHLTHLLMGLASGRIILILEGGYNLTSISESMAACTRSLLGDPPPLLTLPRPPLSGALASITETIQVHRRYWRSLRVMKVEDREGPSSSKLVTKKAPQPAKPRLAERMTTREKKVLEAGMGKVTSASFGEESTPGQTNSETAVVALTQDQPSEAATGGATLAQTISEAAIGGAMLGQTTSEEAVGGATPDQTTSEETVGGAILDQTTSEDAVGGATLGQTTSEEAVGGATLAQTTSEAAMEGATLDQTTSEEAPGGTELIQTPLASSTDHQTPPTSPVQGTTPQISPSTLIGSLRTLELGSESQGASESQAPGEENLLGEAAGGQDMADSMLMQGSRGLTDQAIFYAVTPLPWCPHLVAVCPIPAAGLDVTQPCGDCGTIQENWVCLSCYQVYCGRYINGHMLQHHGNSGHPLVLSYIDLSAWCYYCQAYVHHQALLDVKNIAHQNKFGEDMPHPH
Would you kindly list IC50 for each of these molecules?

Fill in the recorded IC50 for this molecule, with HDAC-6 (Homo sapiens) as test system: Cc1ccc(S(=O)(=O)Nc2ccc(/C=C/C(=O)Nc3ccccc3N)cc2)cc1
> 50 µM

Fill in the recorded IC50 for this molecule, with HDAC-6 (Homo sapiens) as test system: Nc1ccccc1NC(=O)c1ccc(CSc2nc3ccccc3[nH]2)cc1
> 50 µM

Every entry's value here was drawn from patent US20040072770A1.
